The measurements presented in this section are drawn from PubChem BioAssay (Tox21).

- Experiment Summary: qHTS assay to identify small molecule agonists or antagonists of the thyroid stimulating hormone receptor (TSHR) signaling pathway - wild type cell line counter screen (AID 1259384)
- Settings: HEK293 wild type, cAMP HTRF counter-screen; series mostly up to 92.4 µM
- Experimental: U.S. Tox21 Program National Center for Advancing Translational Sciences [NCATS] NIH Chemical Genomics Center [NCGC] U.S. Environmental Protection Agency [EPA] National Institutes of Environmental Health Sciences [NIEHS] National Toxicology Program [NTP] […] Tox21 Assay Protocol Summary: Hek293 cells (wild type) were dispensed at 800 cells/4 uL/well in 1536-well white plates using a Multidrop dispenser. […] The fluorescence intensity in the plates was measured using an Envision plate reader. […]
Results filed as inconclusive are left out. The source made the active and inactive calls. The call rests on the fitted dose curve.
Readout Type: outcome

Examples with their reported outcome follow.
CN1C(=O)N(c2ccccc2Br)Cc2cnc(Nc3ccc4c(c3)OCC(CO)O4)nc21 (configuration not stated) : inactive
CC1(C)S[C@@H]2[C@H](NC(=O)C(c3ccccc3)S(=O)(=O)O)C(=O)N2[C@H]1C(=O)O (some centres not stated) : inactive
Cc1ccccc1S : inactive
O=c1[nH]ncc2ccccc12 : inactive

Query Cc1cc2c(OCC(CNC(C)(C)C)OC(=O)c3ccccc3)cccc2[nH]1 (configuration not stated) yields outcome of inactive

Query `COc1ccc(OC(=O)N(CC(=O)O)Cc2ccc(OCCc3nc(-c4ccccc4)oc3C)cc2)cc1` yields outcome of inactive

Query `Cc1cccc(O)c1N` yields outcome of inactive

Query C=CC(C)(CCC=C(C)C)OC(=O)CC(C)C (configuration not stated) yields outcome of inactive

###

- Measured On: Cytochrome P450 2D6 (Homo sapiens) (UniProt P10635)
- Sequence (P10635 whole entry, looked up): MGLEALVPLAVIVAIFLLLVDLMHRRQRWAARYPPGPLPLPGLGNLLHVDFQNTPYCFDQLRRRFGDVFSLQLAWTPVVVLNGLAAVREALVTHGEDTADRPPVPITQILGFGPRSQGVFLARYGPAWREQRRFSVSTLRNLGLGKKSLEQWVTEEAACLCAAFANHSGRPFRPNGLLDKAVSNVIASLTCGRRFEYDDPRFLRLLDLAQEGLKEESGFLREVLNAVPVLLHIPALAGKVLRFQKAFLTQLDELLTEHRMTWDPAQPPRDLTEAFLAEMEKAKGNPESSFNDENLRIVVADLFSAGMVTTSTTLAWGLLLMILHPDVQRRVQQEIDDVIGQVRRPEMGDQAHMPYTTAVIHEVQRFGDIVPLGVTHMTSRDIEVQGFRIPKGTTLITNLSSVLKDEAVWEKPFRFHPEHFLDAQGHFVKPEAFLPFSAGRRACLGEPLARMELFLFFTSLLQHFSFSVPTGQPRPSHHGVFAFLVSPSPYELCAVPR
- Experiment Summary: Cytochrome P450 Family 2 Subfamily D Member 6 (CYP2D6) small molecule antagonists: luciferase reporter qHTS assay (AID 1671196); further: nearly all actives have a fitted effect of over 50% in size
- Settings: P450-Glo CYP2D6 enzyme assay, luciferin luminescence, 1 h; series mostly up to 115 µM
Results filed as inconclusive are left out. The source made the active and inactive calls. Calls come from the whole dose curve; as a rule, active = well fitted inhibition curve with a large enough effect in the repeat runs; inconclusive = weak or mixed curves; inactive = no such curve, though single readings can be large or run the other way.
// classify into TRUE for active, FALSE for inactive

Query block: Recorded test call requested for `COc1ccccc1N1CCN(CCCCNC(=O)c2ccc(-c3ccc(C(C)=O)cc3)cc2)CC1`
Result block: TRUE

Query block: Recorded test call requested for `Cc1cccc(O)c1N`
Result block: TRUE

Query block: Recorded test call requested for `C[C@@H](O[C@H]1OCCN(Cc2n[nH]c(=O)[nH]2)[C@H]1c1ccc(F)cc1)c1cc(C(F)(F)F)cc(C(F)(F)F)c1`
Result block: TRUE

Query block: Recorded test call requested for `O=[N+]([O-])c1cc(C2CCCCC2)c(O)c([N+](=O)[O-])c1`
Result block: TRUE

Query block: Recorded test call requested for `O=C(O)C[C@H](NC(=O)OCc1ccccc1)C(=O)O`
Result block: FALSE

Query block: Recorded test call requested for `CCOC(=O)c1ccc(C#Cc2ccc3c(c2)C(C)(C)CCS3)nc1`
Result block: FALSE

Query block: Recorded test call requested for `COc1cc(C(=O)NCCCCCC(=O)O)cc(OC)c1OC`
Result block: FALSE

Query block: Recorded test call requested for CC1(C)S[C@@H]2[C@H](NC(=O)C(c3ccccc3)S(=O)(=O)O)C(=O)N2[C@H]1C(=O)O (stereo partly specified)
Result block: FALSE

Query block: Recorded test call requested for `Cc1ccccc1S`
Result block: TRUE

Query block: Recorded test call requested for `CCCC(C(=O)OCCN(CC)CC)(c1ccccc1)c1ccccc1`
Result block: TRUE

Query block: Recorded test call requested for `CC(=O)Oc1ccc([N+](=O)[O-])cc1CCl`
Result block: FALSE
